Source: paper PMC10663500

- system.under.test: T1, mouse programmed cell death protein 1 Fc fusion protein (mPD-1-Fc), mPD-1 C60S (aa 25-167) (Mus musculus, UniProt Q02242, stabilised)
- T1 construct: not cleaved; source: Expi293F, purified (Protein A, SEC; dimeric fraction); not shown: Fc (human), C-terminal, kept
- method.notes: SPR; Carterra LSA; Fab from the ammonium sulfate precipitate of the culture supernatant immobilised on a NiHC200M chip; hPD-1 (1-1024 nM) or mPD-1-Fc (4-1024 nM) as analyte, fourfold dilution series, no regeneration; HBS-EP pH 7.4, 25 °C; medians over the spots of a construct, KD = koff/kon
- assay.conditions: one partner purified
experimental.readout: kon (M⁻¹ s⁻¹)
# value in M⁻¹ s⁻¹; strip the unit string

Entry toripalimab Fab H.A105Y (Fab, V domains shown, heavy chain of Sm3 with this change; numbers count from the chain's first residue; as the light chain of Sm3; source: Brevibacillus, culture supernatant (ammonium sulfate precipitate); not shown: 6xHis, C-terminal, kept; 6xHN, C-terminal, kept) VH: QGQLVQSGAEVKKPGASVKVSCKASGYTFTDYEMHWVRQAPIHGLEWIGVIESETGGTAYNQKFKGRVTITADKSTSTAYMELSSLRSEDTAVYYCAREGITTVYTTYYWYFDVWGQGTTVTVSS VL: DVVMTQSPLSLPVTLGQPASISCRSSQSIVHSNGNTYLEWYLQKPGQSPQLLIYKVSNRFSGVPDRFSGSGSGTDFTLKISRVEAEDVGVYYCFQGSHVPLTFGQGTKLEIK : reported kon = ?
36500

Please turn your attention to the following entry.
What value of kon has been recorded for this entry: toripalimab Fab L.F94Y (Fab, V domains shown, as the heavy chain of Sm3; light chain of Sm3 with this change; numbers count from the chain's first residue; source: Brevibacillus, culture supernatant (ammonium sulfate precipitate); not shown: 6xHis, C-terminal, kept; 6xHN, C-terminal, kept) VH: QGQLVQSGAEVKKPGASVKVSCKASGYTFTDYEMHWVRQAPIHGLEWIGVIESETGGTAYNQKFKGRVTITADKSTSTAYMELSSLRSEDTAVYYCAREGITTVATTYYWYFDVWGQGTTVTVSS VL: DVVMTQSPLSLPVTLGQPASISCRSSQSIVHSNGNTYLEWYLQKPGQSPQLLIYKVSNRFSGVPDRFSGSGSGTDFTLKISRVEAEDVGVYYCYQGSHVPLTFGQGTKLEIK
83200
